Consider the following molecules and their measured pIC50 readings.
- Tested Target: PKACα (PRKACA) (Homo sapiens)
pIC50: −log10 of the molar value.

| Line Notation | pIC50 |
| --- | --- |
| N#Cc1ccc2c(c1)N(S(=O)(=O)c1cccc3c(=O)[nH]ncc13)CC2 | < 5.00 |
| O=c1[nH]ccc2c(S(=O)(=O)N3CCc4ccc(Cl)cc43)cccc12 | < 5.00 |
| O=c1[nH]ccc2c(S(=O)(=O)N3CCc4c(C5CC5)cccc43)cccc12 | < 5.00 |
| CC(=O)Nc1cc(C#N)cc2c1CCN2S(=O)(=O)c1cccc2c(=O)[nH]ccc12 | 5.00 to 6.00 |
| N#Cc1cc(N)c2c(c1)N(S(=O)(=O)c1cccc3c(=O)[nH]cc(Cl)c13)CC2 | < 5.00 |

Now turn to the next molecule.
Inquiry: Recorded pIC50 for "O=c1[nH]ccc2c(S(=O)(=O)N3CCc4cc(O)ccc43)cccc12" with PKACα (PRKACA) (Homo sapiens), please?
Reply text: < 5.00
